The origin of these recorded values is patent US20250042994A1.

- test system: T1, human CD19 exon1-3-his protein (human, UniProt P15391 20-186, limits assumed)
- T1 construct: made in HEK293E cells; also called membrane-distal end; not shown: His tag
- T1 sequence (looked up): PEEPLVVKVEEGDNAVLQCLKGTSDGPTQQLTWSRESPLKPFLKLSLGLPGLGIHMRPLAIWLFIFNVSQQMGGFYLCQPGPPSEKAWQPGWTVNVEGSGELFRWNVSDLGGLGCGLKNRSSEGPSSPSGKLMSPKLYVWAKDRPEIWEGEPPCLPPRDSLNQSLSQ
- measurement notes: ELISA, coated at 2 ug/mL
quantity measured: binding result

>>> recorded_value("F5.2.9 (antibody, human IgG1, V domains shown, human-murine chimeric antibody, human IgG1) VH: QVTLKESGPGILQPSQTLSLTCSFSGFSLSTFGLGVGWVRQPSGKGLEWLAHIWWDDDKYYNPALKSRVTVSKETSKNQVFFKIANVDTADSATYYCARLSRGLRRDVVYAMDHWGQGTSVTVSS VL: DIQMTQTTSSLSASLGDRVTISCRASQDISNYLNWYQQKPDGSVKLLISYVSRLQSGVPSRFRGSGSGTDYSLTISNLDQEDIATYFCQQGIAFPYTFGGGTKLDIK")
"no binding"
>>> recorded_value("F4.96.6 (antibody, human IgG1, V domains shown, human-murine chimeric antibody, human IgG1) VH: EIQLQQSGPELVKPGASVKVSCKASGYAFSAYNIYWVKQSHGKSLEWIGYIDPYNSGTTYNQKFRGKATLTVDKSSNTAYMHLSSLTSEDSAVYYCTRDGDAMDYWGQGTSVTVSS VL: EILLTQSPAIIAASPGEKVTITCSASSGVIYMNWYQQKPGSSPKIWIYDVSTLASGVPARFSGSGSGTSFSFTINSMEAEDVATYYCQQRSSYPYTFGGGTKLEIK")
"no binding"
>>> recorded_value("F4.191.1 (antibody, human IgG1, V domains shown, human-murine chimeric antibody, human IgG1) VH: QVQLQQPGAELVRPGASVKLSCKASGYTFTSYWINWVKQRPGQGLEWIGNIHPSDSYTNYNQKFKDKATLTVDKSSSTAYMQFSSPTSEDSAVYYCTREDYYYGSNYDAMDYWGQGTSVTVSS VL: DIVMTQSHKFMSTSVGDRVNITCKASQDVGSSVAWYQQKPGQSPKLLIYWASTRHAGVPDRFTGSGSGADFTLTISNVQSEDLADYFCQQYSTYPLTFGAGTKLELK")
"no binding"
